# System: hepatocellular carcinoma cell line Hep3B
# test-name: Growth inhibition of Hep3B cells, 48 hr treatment, Hoechst 33342 nucleus count (GE InCell 2200)
# Format: cell-based
# test-settings: Homo sapiens, Table 5, ratio of number of tumor cells treated with 10 μM compound to non-treated cells
# Protocol: The potency of selected compounds was defined by the growth inhibition ability to the hepatocellular carcinoma cell line Hep3B. The Hep3B cells were treated with selected compounds for 48 hr under 37° C., 5% CO2, and 95% relative humidity. The number of treated cells was determined by GE InCell 2200 system, and treated cells were stained with Hoechst 33342 which can reveal the remained nucleus in culture plate. […]
For each of the molecules below, state its viability at 10 µM.
Give bare numbers, in %.

molecule	value-observed
CCCOc1ccc(-c2nc(NC(=O)c3ccc([N+](=O)[O-])s3)sc2Oc2ccc(C(F)(F)F)cc2Cl)cc1 [Compound 5-38]	41

Field: viability at 10 µM. Fill in for each record below.
1. CCCOc1ccc(-c2nc(NC(=O)c3ccc([N+](=O)[O-])s3)sc2Oc2cccc(C(F)(F)F)c2)cc1 [Compound 5-17]
2. Cc1ccc(Oc2sc(NC(=O)c3ccc([N+](=O)[O-])s3)nc2-c2ccc(C(C)(C)C)cc2)cc1 [Compound 5-105]

[37, 30]

====

For each of the compounds below, state its LC50.
# System: Hep3B hepatocellular carcinoma cell line
# test-name: MTS cell viability assay (NCI-60 methodology), GI50/LC50, Hep3B
# Assay type: cell-based
# test-settings: Homo sapiens, 48 h, Hep3B cells, 2 days incubation with compound
Answer with the number, then the unit.

CCC(C)(C)c1ccc(-c2nc(NC(=O)c3ccc([N+](=O)[O-])s3)sc2Oc2ccc(F)cc2)cc1 950 nM
CCC(C)(C)c1ccc(Oc2sc(NC(=O)c3ccc([N+](=O)[O-])s3)nc2-c2ccc(F)cc2)cc1 1160 nM
CCOc1ccc(-c2nnc(NC(=O)Cc3ccc4nc(N)sc4c3)s2)c(OCC)c1 480 nM

Consider now this further compound.
Respond only with LC50 recorded for Nc1nc2ccc(CC(=O)Nc3nnc(-c4ccc(Br)cc4)s3)cc2s1
9400 nM

====

# Tested on: hepatocellular carcinoma cell line Hep3B
# test-name: Growth inhibition of Hep3B cells, 48 hr treatment, Hoechst 33342 nucleus count (GE InCell 2200)
# Assay type: cell-based
# test-settings: Homo sapiens, Table 5, ratio of number of tumor cells treated with 10 μM compound to non-treated cells
Binary call on viability at 10 µM with cut-off 40%: strictly below means Y, and equality or higher means N.

Answered examples (2):
CCCOc1ccc(-c2nc(NC(=O)c3ccc([N+](=O)[O-])s3)sc2Oc2cccnc2)cc1 N
CCCOc1ccc(-c2nc(NC(=O)c3ccc([N+](=O)[O-])s3)sc2Oc2cccc(F)c2)cc1 Y

For CCCOc1ccc(-c2nc(NC(=O)c3ccc([N+](=O)[O-])s3)sc2Oc2ccccc2F)cc1 , is the recorded viability at 10 µM below the cut-off of 40%?
N

For CCCCCOc1ccc(-c2nc(NC(=O)c3ccc([N+](=O)[O-])s3)sc2Oc2ccccc2)cc1 , is the recorded viability at 10 µM below the cut-off of 40%?
Y

For O=C(Nc1nc(-c2ccc(Br)cc2)c(Oc2ccccc2C(F)(F)F)s1)c1ccc([N+](=O)[O-])s1 , is the recorded viability at 10 µM below the cut-off of 40%?
N

For CCCCOc1ccc(-c2nc(NC(=O)c3ccc([N+](=O)[O-])s3)sc2Oc2ccc(CCC)cc2)cc1 , is the recorded viability at 10 µM below the cut-off of 40%?
N

For CCCOc1ccc(-c2nc(NC(=O)c3ccc([N+](=O)[O-])s3)sc2Oc2ccc(OC(F)(F)F)cc2)cc1 , is the recorded viability at 10 µM below the cut-off of 40%?
Y
